Data provenance: patent US20220087987A1

assay: Drug library screen, cell viability (CellTiter-Glo); format: cell-based, human; settings: human; HCT116 ARID1A-WT; 10 μM for 5 days; relative to cells treated with solvent (DMSO); read-out: Cell viability, WT
Where a name gives a salt, the structure may show the parent alone.
MEASUREMENT_TYPE: viability at 5 days, 10 μM (%)

>>> numeric_value("CC(=O)N[C@@H](CS)C(=O)O")
186
>>> numeric_value("CC[C@H]1/C=C/C=C/C[C@@H](C)[C@H](O)[C@@](C)(O)C(=O)[C@@H](C)[C@H](O)[C@@H](C)C(=O)[C@@H](C)[C@H](O)[C@@H](C)/C=C/C(=O)O[C@@H]2[C@H](C)[C@H](CC1)O[C@]1(CC[C@H](C)[C@H](C[C@@H](C)O)O1)[C@H]2C")
13.6
>>> numeric_value("COc1ccc([C@@H]2Sc3ccccc3N(CCN(C)C)C(=O)[C@@H]2OC(C)=O)cc1")
102
>>> numeric_value("COc1cc(O)c(CC=C(C)C)c(O)c1C(=O)/C=C/c1ccc(O)cc1")
104
>>> numeric_value("COc1cc2c(Nc3ccc(Br)cc3F)ncnc2cc1OCC1CCN(C)CC1")
14.1
>>> numeric_value("COc1cccc2c1C(=O)c1c(O)c3c(c(O)c1C2=O)C[C@@](O)(C(C)=O)C[C@@H]3O[C@H]1C[C@H](N)[C@H](O)[C@H](C)O1 [Daunorubicin, HCl]")
5.21
>>> numeric_value("Cc1cn(-c2cc(NC(=O)c3ccc(C)c(Nc4nccc(-c5cccnc5)n4)c3)cc(C(F)(F)F)c2)cn1")
85.8
>>> numeric_value("CC[C@@]1(O)C(=O)OCc2c1cc1n(c2=O)Cc2cc3ccccc3nc2-1")
2.97
>>> numeric_value("Nc1ncn([C@H]2C[C@H](O)[C@@H](CO)O2)c(=O)n1")
30.8
>>> numeric_value("Cn1c(=O)c2[nH]cnc2n(C)c1=O")
203
>>> numeric_value("CCCCCCCCCCC1=C(C)C(=O)C(OC)=C(OC)C1=O")
85.7
>>> numeric_value("CO[C@H]1C[C@@H]2CC[C@@H](C)[C@@](O)(O2)C(=O)C(=O)N2CCCC[C@H]2C(=O)O[C@H]([C@H](C)C[C@@H]2CC[C@@H](OCCO)[C@H](OC)C2)CC(=O)[C@H](C)/C=C(\\C)[C@@H](O)[C@@H](OC)C(=O)[C@H](C)C[C@H](C)/C=C/C=C/C=C/1C")
77.4
>>> numeric_value("CCCS(=O)(=O)Nc1ccc(F)c(C(=O)c2c[nH]c3ncc(-c4ccc(Cl)cc4)cc23)c1F")
103
>>> numeric_value("CC(C)(C)c1cc(O)ccc1O [t-Butylhydroquinone (BHQ), t-Butylhydroquinone]")
95.4

###

Reported Cell viability, WT values follow for various compounds
test system: ARID1A-WT HCT116 cells; assay: Drug library screen, cell viability (CellTiter-Glo); format: cell-based, human; details: HCT116 ARID1A-WT; 10 μM for 5 days; relative to cells treated with solvent (DMSO)
MEASUREMENT_TYPE: Cell viability, WT

>>> result("COc1cc2ncnc(Nc3ccc(NC(=O)c4ccccc4)cc3)c2cc1OC")
53.336
>>> result("N#C/C(=C\\c1ccc2oc(=O)[nH]c2c1)C(=O)c1ccc(O)c(O)c1")
148.6873
>>> result("CC(C)(C)n1nc(-c2ccc(Cl)cc2)c2c(N)ncnc21")
121.2434
>>> result("O=S(=O)(NCCNC/C=C/c1ccc(Br)cc1)c1cccc2cnccc12")
78.81
>>> result("Fc1ccc(Cl)cc1-c1nc(Nc2ccncc2)c2nccnc2n1")
73.72
>>> result("CO/C1=C\\C(C)=C\\[C@@H](C)[C@@H](O)[C@@H](C)C/C(C)=C/C=C/[C@H](OC)[C@@H]([C@@H](C)[C@@H](O)[C@H](C)[C@@]2(O)C[C@@H](O)[C@H](C)[C@@H](C(C)C)O2)OC1=O")
4.059
>>> result("CCCC[C@@H](C)[C@@H](OC(=O)C[C@@H](CC(=O)O)C(=O)O)[C@H](C[C@@H](C)C[C@H](O)CCCC[C@@H](O)C[C@H](O)[C@H](C)N)OC(=O)C[C@@H](CC(=O)O)C(=O)O")
87.23
>>> result("O=C1Nc2ccc(I)cc2/C1=C/c1cc(Br)c(O)c(Br)c1")
127.271
>>> result("O=C1NC(=O)c2c1c1c3ccccc3n3c1c1c2c2ccccc2n1C1CCC3O1")
101.994
>>> result("O=C1C(SCCO)=C(SCCO)C(=O)c2ccccc21")
41.93
>>> result("Cc1cn([C@H]2C[C@H](N=[N+]=[N-])[C@@H](CO)O2)c(=O)[nH]c1=O")
71.38
>>> result("CC(/C=C/C(=O)NO)=C\\[C@@H](C)C(=O)c1ccc(N(C)C)cc1")
6.352
>>> result("Cc1nc(N)sc1-c1ccnc(Nc2cccc([N+](=O)[O-])c2)n1")
6.309
>>> result("O=c1[nH]cc(F)c(=O)[nH]1")
32.167
>>> result("CCCCN1C(=O)C2Cc3c([nH]c4ccccc34)C(c3cccc(O)c3)N2C1=O (stereo not shown)")
12.52
>>> result("Cc1cccc(-c2[nH]ncc2-c2ccc3ncccc3n2)n1")
90.9

###

system: ARID1A-WT HCT116 cells; test: Drug library screen, cell viability (CellTiter-Glo); format: cell-based, human; conditions: HCT116 ARID1A-WT; 10 μM for 5 days; relative to cells treated with solvent (DMSO)
Mark Criterion met only for Cell viability, WT values smaller than 100; exact matches and larger values are Criterion not met.

>>> cat("COc1nccc(-c2c(-c3ccc(F)cc3)ncn2C2CCC(O)CC2)n1 (stereo not shown)")
"Criterion not met"
>>> cat("CCN1/C(=C/C(C)=O)Sc2ccc(OC)cc21")
"Criterion not met"
>>> cat("CCCNC(=O)[C@H]1O[C@@H]1C(=O)N[C@H](C(=O)N1CCC[C@H]1C(=O)O)[C@@H](C)CC")
"Criterion not met"
>>> cat("O=c1onc2cnc3ccccc3n12")
"Criterion met"
>>> cat("COc1cc(/C=C(\\C#N)C(N)=O)cc(CSc2nc3ccccc3s2)c1O")
"Criterion met"
>>> cat("COc1cc2ncc(-c3ccccc3)nc2cc1OC")
"Criterion not met"
>>> cat("Oc1ccc(-c2nc(-c3ccc(F)cc3)c(-c3ccncc3)[nH]2)cc1")
"Criterion not met"
>>> cat("O=C1C2CCN(CC2)C1(CO)CO")
"Criterion met"
>>> cat("Brc1c(Br)c(Br)c2n[nH]nc2c1Br")
"Criterion not met"

###

tested on: ARID1A-KO HCT116 cells; assay: Drug library screen, cell viability (CellTiter-Glo); assay type: cell-based, human
Mark t only for Cell viability, KO values smaller than 100; exact matches and larger values are f.

>>> cat("Cn1cc(/C=C2\\C(=O)Nc3ccc(S(N)(=O)=O)cc32)c2ccccc21 [Syk inhibitor]")
"t"
>>> cat("CC1=NN(c2ccc(C(=O)O)cc2)C(=O)/C1=C\\c1ccc(-c2cc(C)c(C)cc2[N+](=O)[O-])o1 [C646]")
"f"
>>> cat("CN(C)CC(=O)Nc1ccc2[nH]c(=O)c3ccccc3c2c1 [PJ-34]")
"t"
>>> cat("NC(=O)c1ccc(-c2nc(-c3ccc4c(c3)OCCO4)c(-c3ccccn3)[nH]2)cc1 [D4476]")
"f"
>>> cat("CN(C)S(=O)(=O)c1ccc2c(c1)/C(=C/c1cc3c([nH]1)CCCC3)C(=O)N2 [SU6656]")
"f"
>>> cat("Nc1nc(OCc2ccccc2)c2nc[nH]c2n1 [Benzylguanine]")
"f"
>>> cat("CN([C@@H](Cc1ccc(OS(=O)(=O)c2cccc3cnccc23)cc1)C(=O)N1CCN(c2ccccc2)CC1)S(=O)(=O)c1cccc2cnccc12 [KN-62]")
"f"
>>> cat("O=C1Nc2ccc3ncsc3c2/C1=C/c1cnc[nH]1 [PKR inhibitor]")
"t"
>>> cat("Nc1cccc(-c2cc3c(Oc4cccc(O)c4)ncnc3[nH]2)c1 [TWS119]")
"t"

###

test system: ARID1A-WT HCT116 cells; assay: Drug library screen, cell viability (CellTiter-Glo); type: cell-based, human; details: HCT116 ARID1A-WT; 10 μM for 5 days; relative to cells treated with solvent (DMSO)
Square brackets hold non-standard residues; d marks the D form. Peptide text beside a SMILES is read from it. * marks the point of attachment. Sta = CC(C)C[C@H](N)[C@@H](O)CC(=O)O; Isovaleryl = CC(C)CC(=O)*
Classification field. Basis: Cell viability, WT. Definitions: lower level = under 60, middle level = from 60 up to 100, upper level = 100 and over

>>> cat("N#CCCc1ccc2c(c1)-c1[nH]c3ccc([N+](=O)[O-])cc3c1CC(=O)N2")
"lower level"
>>> cat("C[n+]1ccc(-c2c3nc(c(-c4cc[n+](C)cc4)c4ccc([nH]4)c(-c4cc[n+](C)cc4)c4ccc([nH]4)c(-c4cc[n+](C)cc4)c4nc2C=C4)C=C3)cc1")
"lower level"
>>> cat("CC(C)CC(=O)N[C@H](C(=O)N[C@H](C(=O)N[C@@H](CC(C)C)[C@@H](O)CC(=O)N[C@@H](C)C(=O)N[C@@H](CC(C)C)[C@@H](O)CC(=O)O)C(C)C)C(C)C [Pepstatin A] (Isovaleryl-VV[Sta]A[Sta]-OH)")
"upper level"
>>> cat("Cc1ccc(NC(=O)c2cccc(N(C)C)c2)cc1NC(=O)c1ccc(O)cc1")
"upper level"
>>> cat("COc1ccc2c(c1)c1c3c(c4c5ccccc5n(C)c4c1n2CC(O)CN(C)C)C(=O)NC3=O (stereo not shown)")
"lower level"
>>> cat("COC(=O)CNC(=O)C(=O)OC")
"middle level"
>>> cat("COc1ccc(S(=O)(=O)N(CCO)c2ccccc2CN(C)C/C=C/c2ccc(Cl)cc2)cc1")
"lower level"
>>> cat("O=C(Cc1ccccc1)Nc1c2c(nc3ccccc13)N(Cc1ccccc1)CC2")
"upper level"
>>> cat("CCN(CC)CCNC(=O)c1c(C)[nH]c(/C=C2\\C(=O)Nc3ccc(Cl)cc32)c1C")
"lower level"
>>> cat("Cc1cc(C=C2C(=O)C=CC2=O)cc(C)c1O")
"upper level"
>>> cat("COc1ccc(OC)c2c(=S)c3ccccc3[nH]c12")
"upper level"
>>> cat("O=C(NCCCCCCNC(=O)ON=C1CCCCC1)ON=C1CCCCC1")
"middle level"
>>> cat("CCCCCCCCCCCCCCCCCCc1ccc(C(=O)/C=C/C(=O)O)cc1")
"upper level"
>>> cat("NC(=O)Nc1sc(-c2ccccc2)cc1C(N)=O")
"lower level"
>>> cat("Cc1ccc(-c2cn3c4c(sc3n2)CCCC4)cc1")
"middle level"
>>> cat("N#C/C(=C/c1ccc(O)c(O)c1)C(=O)NCc1ccccc1")
"upper level"
>>> cat("NC1CC1c1cc(F)cc(F)c1OCc1ccccc1 (stereo not shown)")
"middle level"
>>> cat("C[C@H]1CCC/C=C/[C@@H]2C[C@H](O)C[C@H]2[C@H](O)/C=C/C(=O)O1")
"lower level"
>>> cat("COC(=O)[C@H](Cc1ccc([N+](=O)[O-])cc1)NC(=O)c1cccc2ccccc12")
"upper level"
>>> cat("O=Cc1ccc(N2CCOCC2)cc1O")
"upper level"
>>> cat("CCNCCCNCCCCNCCCNCC")
"lower level"
>>> cat("O=c1cc(-c2cccc3c2Sc2ccccc2S3)oc(N2CCOCC2)c1")
"middle level"
>>> cat("CNC(=N)NCCC[C@H](N)C(=O)O")
"upper level"
>>> cat("CCOc1nc(NC(=O)Cc2cc(OC)ccc2OC)cc(N)c1C#N")
"upper level"
>>> cat("CC(C)(C)c1cc(C=C(C#N)C#N)cc(Br)c1O")
"upper level"
>>> cat("O=C(NCc1ccccc1)c1csc(Nc2ccncn2)n1")
"lower level"
>>> cat("CCC(=C/[C@H](C)C/C=C/C(C)=C/[C@@H](C)C(=O)[C@@H](C)[C@H](O)[C@@H](C)C/C(C)=C/C(=O)O)/C=C/[C@@H]1OC(=O)C=C[C@@H]1C")
"lower level"
>>> cat("CN(C)c1nc2c(Br)c(Br)c(Br)c(Br)c2[nH]1")
"upper level"
>>> cat("O=CN1CCN(c2ccc(/C=C3\\C(=O)Nc4ccccc43)cc2)CC1")
"upper level"
>>> cat("CCCCOc1cc(CC2CNC(=O)N2)ccc1OC (stereo not shown)")
"upper level"
>>> cat("COc1ccc(Cn2ccc3ccc(C(=O)NO)cc32)cc1")
"middle level"
>>> cat("O=C(Nc1ccc([N+](=O)[O-])cc1O)Nc1ccccc1Br")
"lower level"
